# Assay text: Partition coefficient (logD6.5)
# Condition details: octanol/water, pH 6.5
Value kind: logD

* CCCC[C@H](O[C@@H](Cc1ccccc1)C(=O)N1CCC(OCOC)CC1)C(=O)N[C@@H](CC1CCCCC1)[C@@H](O)C[C@H](C(=O)NCCC(=O)O)C(C)C | 1.9
* CCCC[C@H](O[C@@H](Cc1ccccc1)C(=O)N1CCC(OCOC)CC1)C(=O)N[C@@H](CC1CCCCC1)[C@@H](O)C[C@H](C(=O)NCCCN1CCOCC1)C(C)C | 3.3
* CCCC[C@H](N[C@@H](Cc1ccccc1)C(=O)N1CCC(OCOC)CC1)C(=O)N[C@@H](CC1CCCCC1)[C@@H](O)C[C@H](C(=O)NCCCN1CCOCC1)C(C)C | 3.9
* CCCC[C@H](O[C@@H](Cc1ccccc1)C(=O)N1CCC(OCOC)CC1)C(=O)N[C@@H](CC1CCCCC1)[C@@H](O)C[C@H](C(=O)NCCCN)C(C)C | 2.4
* CCCC[C@H](N[C@@H](Cc1ccccc1)C(=O)N1CCC(OCOC)CC1)C(=O)N[C@@H](CC1CCCCC1)[C@@H](O)C[C@H](C(=O)NCCC[N+]1([O-])CCOCC1)C(C)C | 3.6
* CCCC[C@H](N[C@@H](Cc1ccccc1)C(=O)N1CCC(OCOC)CC1)C(=O)N[C@@H](CC1CCCCC1)[C@@H](O)C[C@H](C(=O)NCCNc1noc(N)n1)C(C)C | 4.07
* CCCC[C@H](O[C@@H](Cc1ccccc1)C(=O)N1CCC(OCOC)CC1)C(=O)N[C@@H](CC1CCCCC1)[C@@H](O)C[C@H](C(=O)NCCCNCCO)C(C)C | 2.5
* CCCC[C@H](O[C@@H](Cc1ccccc1)C(=O)N1CCC(OCOC)CC1)C(=O)N[C@@H](CC1CCCCC1)[C@@H](O)C[C@H](C(=O)NCCCNC(N)=NC#N)C(C)C | 4.6

* * *

# Assay text: Average peak plasma concentration of compound after 1 mg/kg intravenous administration to Ferret
# Condition details: in vivo
Here the recorded Cmax is given for each entry.
Value kind: Cmax (ng/mL)

- CCCC[C@H](N[C@@H](Cc1ccccc1)C(=O)N1CCC(OCOC)CC1)C(=O)N[C@@H](CC1CCCCC1)[C@@H](O)C[C@H](C(=O)NCCCN1CCOCC1)C(C)C: 1550
- CCCC[C@H](N[C@@H](Cc1ccccc1)C(=O)N1CCC(OCOC)CC1)C(=O)N[C@@H](CC1CCCCC1)[C@@H](O)C[C@H](C(=O)NCc1cccnc1)C(C)C: 3480

* * *

# Assay text: Oral bioavailability in ferret
# Condition details: in vivo
Value kind: bioavailability

* CCCC[C@H](N[C@@H](Cc1ccccc1)C(=O)N1CCC(OCOC)CC1)C(=O)N[C@@H](CC1CCCCC1)[C@@H](O)C[C@H](C(=O)NCCCN1CCOCC1)C(C)C | 75%
* CCCC[C@H](N[C@@H](Cc1ccccc1)C(=O)N1CCC(OCOC)CC1)C(=O)N[C@@H](CC1CCCCC1)[C@@H](O)C[C@H](C(=O)NCCNc1noc(N)n1)C(C)C | 7%
* CCCC[C@H](N[C@@H](Cc1ccccc1)C(=O)N1CCC(OCOC)CC1)C(=O)N[C@@H](CC1CCCCC1)[C@@H](O)C[C@H](C(=O)NCc1ccccn1)C(C)C | 46%
* CCCC[C@H](N[C@@H](Cc1ccccc1)C(=O)N1CCC(OCOC)CC1)C(=O)N[C@@H](CC1CCCCC1)[C@@H](O)C[C@H](C(=O)NCC(C)(C)N1CCOCC1)C(C)C | 63%
* CCCC[C@H](N[C@@H](Cc1ccccc1)C(=O)N1CCC(OCOC)CC1)C(=O)N[C@@H](CC1CCCCC1)[C@@H](O)C[C@H](C(=O)NCc1cccnc1)C(C)C | > 98%
* CCCC[C@H](N[C@@H](Cc1ccccc1)C(=O)N1CCC(OCOC)CC1)C(=O)N[C@@H](CC1CCCCC1)[C@@H](O)C[C@H](C(=O)NCCN1CCCCC1)C(C)C | 33%
